# METHOD NOTES: pKa from the λ max dependence on pH
# Assay type: physicochemical
# TEST CONTEXT: read-out: pKa for a COOH group
ASSAY ENDPOINT: pKa
Give bare numbers.

### Prompt Find the measured pKa of CC(=O)NCCSC1=C(C(=O)O)N2C(=O)C(C(C)O)C2C1 (stereo not shown) and report it.
### Response 3.3
